Taken from patent US20220389097A1.

Biological target: T1, cynomolgus TREM2 stalk antigen (cynomolgus monkey, UniProt A0A2K5UY34 159-204, not fully specified)
T1 construct: domain: stalk
T1 chain: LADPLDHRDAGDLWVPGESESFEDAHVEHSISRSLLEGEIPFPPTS
Experiment: SPR (Biacore T200), 37 C; TREM2 stalk antigen on anti-human IgG1 Fc chip, antibody in solution
pKd: −log10 of the molar value.
pKd overview

{"columns": ["BINDER", "pKd"],
 "data": [
  ["3.27H7 (rat anti-human TREM2 antibody) (antibody, V domains shown, Whole IgG) VH: EVQLVETGGSLVQPGGSLKLTCATSGFPFSNVWLHWIRRSPEKQLEWVAQIKARSDNYATYYAESVKGRFIVSRDDSKTTIYLQMNNLKEEDTAIYYCTGLDYWGQGVMVTVSS VL: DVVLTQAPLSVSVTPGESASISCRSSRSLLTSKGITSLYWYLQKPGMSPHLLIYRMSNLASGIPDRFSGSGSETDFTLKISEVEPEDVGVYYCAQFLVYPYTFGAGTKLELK", 9.59],
  ["3.50G1 (rat anti-human TREM2 antibody) (antibody, IgG2a, V domains shown, Whole IgG) VH: EVQLVETGGSLVQPGKSLKLTCATSGFPFSNVWMHWVRQSPEKQLEWIAHIKAKSDNYATYYAESVKGRFTISRDDSKTSIYLQMNSLKDDDTAIYYCTGLDYWGQGVMVTVSS VL: DTVLTQAPLSVSVTPGESASISCRSNKSLLGIRDITSLYWFLQKPGKSPQLLIYRMSNLASGVPDRFSGSGSETDFTLKISEVETEDVGVYYCAQFLRYPYTFGPGTKLELQ", 9.24],
  ["3.10C2 (rat anti-human TREM2 antibody) (antibody, V domains shown, Whole IgG with rat variable regions; also called clone 3.10C2) VH: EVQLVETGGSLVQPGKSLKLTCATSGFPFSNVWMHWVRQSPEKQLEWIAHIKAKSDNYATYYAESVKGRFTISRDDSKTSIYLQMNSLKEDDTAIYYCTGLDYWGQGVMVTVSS VL: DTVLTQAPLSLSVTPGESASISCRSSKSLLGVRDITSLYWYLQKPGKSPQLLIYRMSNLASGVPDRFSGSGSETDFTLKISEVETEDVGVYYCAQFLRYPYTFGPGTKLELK", 9.60],
  ["3.18E5 (rat anti-human TREM2 antibody) (antibody, IgG2a, V domains shown, Whole IgG) VH: EVQLVETGGSLVQPGKSLKLTCATSGFPFSNVWMHWVRQSPEKQLEWIAHIKAKSDNYATYYAESVKGRFTISRDDSKTTIYLQMNSLKEADTAIYYCTGLDYWGQGVMVTVSS VL: DTVLTQAPLSVSVTPGESASISCRSNKSLLGIRDITSLYWYLQKPGKSPQLLIYRMSNLASGVPDRFSGSGSETDFTLKISEVETEDVGVYYCAQFLRYPYTFGPGTKLELK", 9.52]
]}
